meta.source: PubChem BioAssay

# Tested on: F380Y
# assayComment: modulators of BK channel variants, profiling panel, selectivity assay, cell-based, U2OS BacMam, thallium flux, beta subunits (AID 1259406);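 also: initial slope of Thallos dye fluorescence rise after thallium is added; log ratio against the mean of 0.3% DMSO vehicle wells on the same plate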
# statedConditions: at 30 µM
Active and inactive are the calls of the source.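 The calls were made as follows: active = thallium flux through the channel raised or lowered by more than 3 SD from vehicle-only wells, actives on both sides; inactive = the rest.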
Please reply with one of these outcomes: true (1) = active, false (0) = inactive

{"compound": "O=C1CCC(=O)N1c1ccc(S(=O)(=O)NCCCN2CCN(Cc3ccccc3)CC2)cc1", "cat": "false (0)"}
{"compound": "COc1cccc(N2CC(=O)N(NC(=O)NC3CCCCC3)CC2=O)c1", "cat": "false (0)"}
{"compound": "O=[N+]([O-])c1ccc(N2CCSCC2)cc1O", "cat": "false (0)"}
{"compound": "N#CC1=C(Nc2ccccc2Cl)SC(c2ccncc2)NC1=O (stereo not given)", "cat": "false (0)"}
{"compound": "Cc1cc(N=CN(C)C)c2ccccc2n1", "cat": "false (0)"}

Query: For CC(CCCCC(=O)Nc1ccc(C(F)(F)F)cc1)NCCc1cnc[nH]1 (stereo not given) , what call appears in the results of this test?
Reply: false (0)

Query: For CNCC[C@@H](Oc1ccccc1C)c1ccccc1 , what call appears in the results of this test?
Reply: false (0)

Query: For Cn1cnc2cccc(F)c2c1=N , what call appears in the results of this test?
Reply: false (0)

Query: For CN(C)C=NC(=O)c1sc(S(C)(=O)=O)c2c1CCC=C2 , what call appears in the results of this test?
Reply: true (1)

Query: For Cc1c(C(=O)NN2CCCCC2)nn(-c2ccc(Cl)cc2Cl)c1-c1ccc(I)cc1 , what call appears in the results of this test?
Reply: false (0)

Query: For Clc1cc(Cl)cc(Nc2ncnc(-n3cccc3)n2)c1 , what call appears in the results of this test?
Reply: false (0)

* * *

// reported normalised cell number for each item listed
# assayComment: differential killing of epithelial or mesenchymal cells, primary screen, imaging, PC-3E GFP, TEM4-18 mCherry, co-culture (AID 1345086);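 also: cells exposed to compound for 72 h before imaging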
# statedConditions: imaging cell counts, measured here: epithelial PC-3E GFP cell survival, at 1 µM

Sample records with normalised cell number:
{"compound": "O=C(N[C@@H](Cc1ccc(O)cc1)C(=O)O)OCc1ccccc1", "normalised cell number": 1.09}
{"compound": "CC(C)CC1C(=O)OC(C(C)C)C(=O)N(C)C(C(C)C)C(=O)OC(C(C)C)C(=O)N(C)C(C(C)C)C(=O)OC(C(C)C)C(=O)N1C (centres undefined)", "normalised cell number": 1.17}
{"compound": "C[C@H]1C[C@H](O)[C@H]2[C@@H](C=C[C@@](C)(O)[C@]2(C)C(=O)CCO)C1", "normalised cell number": 0.32}
{"compound": "Cc1cc(O)c2c(c1)Cc1cccc(O)c1C2=O", "normalised cell number": 1.28}
{"compound": "CC(=O)Oc1cc2c(s1)CCN([C@H](C(=O)C1CC1)c1ccccc1F)C2", "normalised cell number": 0.87}
{"compound": "COc1cc(C)c(Oc2cc(C)cc(O)c2O)c(O)c1", "normalised cell number": 1.18}
{"compound": "C=C1OC(=O)C23C1OC(CC(O)C2O)C3C (centres undefined)", "normalised cell number": 1.26}
{"compound": "CC(C)[C@@H]1CC[C@@H](C)C[C@H]1O", "normalised cell number": 0.91}

Query: Specify measured normalised cell number for O=C(O)C1CC(C2CCCCN2)CN2CCCCC12 (centres undefined) .
Reply: 0.95

Query: Specify measured normalised cell number for CC(=O)C1=C(O)C=C2Oc3c(C(N)=O)c(O)cc(O)c3[C@@]2(C)C1=O .
Reply: 0.92

Query: Specify measured normalised cell number for O=S(=O)([O-])OC[C@H]1O[C@@](COS(=O)(=O)[O-])(O[C@H]2O[C@H](COS(=O)(=O)[O-])[C@@H](OS(=O)(=O)[O-])[C@H](OS(=O)(=O)[O-])[C@H]2OS(=O)(=O)[O-])[C@@H](OS(=O)(=O)[O-])[C@@H]1OS(=O)(=O)[O-].[Al+3].[Na+].[Na+].[O-2].[O-2].[OH-] .
Reply: 1.15

Query: Specify measured normalised cell number for OC[C@H]1O[C@H](OC[C@H]2O[C@@H](O)[C@H](O)[C@@H](O)[C@@H]2O)[C@H](O)[C@@H](O)[C@H]1O .
Reply: 0.99

Query: Specify measured normalised cell number for CCCCCC(=O)O[C@]1(C(C)=O)CCC2C3CCC4=CC(=O)CC[C@]4(C)C3CC[C@@]21C (some centres undefined) .
Reply: 1.08

Query: Specify measured normalised cell number for C[C@]12C=CC(=O)C=C1CCC1C2[C@@H](O)C[C@@]2(C)C1CC[C@]2(O)C(=O)COC(=O)CCC(=O)O (some centres undefined) .
Reply: 1.15

Query: Specify measured normalised cell number for O=c1c(O)c(-c2ccccc2)oc2ccc3occc3c12 .
Reply: 1.22

Query: Specify measured normalised cell number for CCCCC(=O)O[C@]1(C(=O)CO)CCC2C3CCC4=CC(=O)CC[C@]4(C)C3[C@@H](O)C[C@@]21C (some centres undefined) .
Reply: 0.69

Query: Specify measured normalised cell number for CC(=O)OCC(=O)[C@@]1(O)CCC2C3CCC4=CC(=O)CC[C@]4(C)[C@@]3(F)[C@@H](O)C[C@@]21C (some centres undefined) .
Reply: 0.85
